- PROTOCOL DETAILS: Cytotoxicity against MDCK cells assessed as cell viability at 50 uM after 40 hrs by CellTiter-Glo assay
- Assay type: cell-based, Canis lupus familiaris
- TEST SETTINGS: dog, read-out: Activity

{"columns": ["SMILES NOTATION", "viability at 40 h, 50 µM [%]"],
 "data": [
  ["CCOC(=O)C1=C[C@@H](OC(CC)CC)[C@H](NC(C)=O)[C@@H](N)C1", 98.5]
]}

====

- PROTOCOL DETAILS: Antiviral activity against Influenza A virus (A/WSN/33(H1N1)) infected in MDCK cells assessed as inhibition of virus-induced cytopathic effect at 100 uM incubated for 40 hrs by CellTiter-Glo assay
- Assay type: functional, Influenza A virus (A/WSN/1933(H1N1))

{"columns": ["SMILES NOTATION", "inhibition at 100 µM (%)"],
 "data": [
  ["COC(=O)[C@@]1(OCCOC(=O)[C@]23CCC(C)(C)C[C@@H]2C2=CC[C@@H]4[C@@]5(C)CC[C@H](O)C(C)(C)[C@@H]5CC[C@@]4(C)[C@]2(C)CC3)C[C@H](O)[C@@H](NC(C)=O)[C@H]([C@H](O)[C@H](O)CO)O1", 16.4],
  ["C=C(C)[C@@H]1CC[C@]2(C(=O)NCc3cn(CCO[C@]4(C(=O)OC)C[C@H](O)[C@@H](NC(C)=O)[C@H]([C@H](O)[C@H](O)CO)O4)nn3)CC[C@]3(C)[C@H](CC[C@@H]4[C@@]5(C)CC[C@H](O)C(C)(C)[C@@H]5CC[C@]43C)[C@@H]12", 12.2],
  ["COC(=O)[C@@]1(OCCOC(=O)[C@]23CCC(C)(C)C[C@@H]2C2=CC[C@@H]4[C@@]5(C)CC[C@H](O)C(C)(C)[C@@H]5CC[C@@]4(C)[C@]2(C)CC3)C[C@H](OC(C)=O)[C@@H](NC(C)=O)[C@H]([C@H](OC(C)=O)[C@@H](COC(C)=O)OC(C)=O)O1", 18.7],
  ["C=C(C)[C@@H]1CC[C@]2(C(=O)OCCO[C@]3(C(=O)OC)C[C@H](O)[C@@H](NC(C)=O)[C@H]([C@H](O)[C@H](O)CO)O3)CC[C@]3(C)[C@H](CC[C@@H]4[C@@]5(C)CC[C@H](O)C(C)(C)[C@@H]5CC[C@]43C)[C@@H]12", 94.8],
  ["COC(=O)[C@@]1(OCCN=[N+]=[N-])C[C@H](OC(C)=O)[C@@H](NC(C)=O)[C@H]([C@H](OC(C)=O)[C@@H](COC(C)=O)OC(C)=O)O1", 4.3],
  ["COC(=O)[C@@]1(N=[N+]=[N-])C[C@H](OC(C)=O)[C@@H](NC(C)=O)[C@H]([C@H](OC(C)=O)[C@@H](COC(C)=O)OC(C)=O)O1", 1],
  ["COC(=O)[C@@]1(OCCn2cc(CNC(=O)[C@]34CCC(C)(C)C[C@@H]3C3=CC[C@@H]5[C@@]6(C)CC[C@H](O)C(C)(C)[C@@H]6CC[C@@]5(C)[C@]3(C)CC4)nn2)C[C@H](OC(C)=O)[C@@H](NC(C)=O)[C@H]([C@H](OC(C)=O)[C@@H](COC(C)=O)OC(C)=O)O1", 57.8],
  ["COC(=O)[C@@]1(n2cc(CNC(=O)[C@]34CCC(C)(C)C[C@@H]3C3=CC[C@@H]5[C@@]6(C)CC[C@H](O)C(C)(C)[C@@H]6CC[C@@]5(C)[C@]3(C)CC4)nn2)C[C@H](OC(C)=O)[C@@H](NC(C)=O)[C@H]([C@H](OC(C)=O)[C@@H](COC(C)=O)OC(C)=O)O1", 1.3],
  ["COC(=O)[C@@]1(OCCn2cc(CNC(=O)[C@]34CCC(C)(C)C[C@@H]3C3=CC[C@@H]5[C@@]6(C)CC[C@H](O)C(C)(C)[C@@H]6CC[C@@]5(C)[C@]3(C)C[C@H]4O)nn2)C[C@H](O)[C@@H](NC(C)=O)[C@H]([C@H](O)[C@H](O)CO)O1", 2.2],
  ["COC(=O)[C@@]1(OCCOC(=O)[C@]23CCC(C)(C)C[C@@H]2C2=CC[C@@H]4[C@@]5(C)CC[C@H](O)C(C)(C)[C@@H]5CC[C@@]4(C)[C@]2(C)C[C@H]3O)C[C@H](OC(C)=O)[C@@H](NC(C)=O)[C@H]([C@H](OC(C)=O)[C@@H](COC(C)=O)OC(C)=O)O1", 31.2],
  ["CC(=O)N[C@H]1[C@H]([C@H](O)[C@H](O)CO)O[C@@](O)(C(=O)O)C[C@@H]1O", 2],
  ["COC(=O)[C@@]1(OCCI)C[C@H](OC(C)=O)[C@@H](NC(C)=O)[C@H]([C@H](OC(C)=O)[C@@H](COC(C)=O)OC(C)=O)O1", 6.3],
  ["COC(=O)[C@@]1(OCCn2cc(CNC(=O)[C@]34CCC(C)(C)C[C@@H]3C3=CC[C@@H]5[C@@]6(C)CC[C@H](O)C(C)(C)[C@@H]6CC[C@@]5(C)[C@]3(C)CC4)nn2)C[C@H](O)[C@@H](NC(C)=O)[C@H]([C@H](O)[C@H](O)CO)O1", 6.7],
  ["COC(=O)[C@@]1(n2cc(CNC(=O)[C@]34CCC(C)(C)C[C@@H]3C3=CC[C@@H]5[C@@]6(C)CC[C@H](O)C(C)(C)[C@@H]6CC[C@@]5(C)[C@]3(C)CC4)nn2)C[C@H](O)[C@@H](NC(C)=O)[C@H]([C@H](O)[C@H](O)CO)O1", -4.6],
  ["C=C(C)[C@@H]1CC[C@]2(C(=O)NCc3cn(CCO[C@]4(C(=O)OC)C[C@H](OC(C)=O)[C@@H](NC(C)=O)[C@H]([C@H](OC(C)=O)[C@@H](COC(C)=O)OC(C)=O)O4)nn3)CC[C@]3(C)[C@H](CC[C@@H]4[C@@]5(C)CC[C@H](O)C(C)(C)[C@@H]5CC[C@]43C)[C@@H]12", 67.6]
]}
